Listed here: items and their measured EC50.
# test-target: Nociceptin receptor (Homo sapiens, UniProt P41146)
# Sequence (P41146 whole entry): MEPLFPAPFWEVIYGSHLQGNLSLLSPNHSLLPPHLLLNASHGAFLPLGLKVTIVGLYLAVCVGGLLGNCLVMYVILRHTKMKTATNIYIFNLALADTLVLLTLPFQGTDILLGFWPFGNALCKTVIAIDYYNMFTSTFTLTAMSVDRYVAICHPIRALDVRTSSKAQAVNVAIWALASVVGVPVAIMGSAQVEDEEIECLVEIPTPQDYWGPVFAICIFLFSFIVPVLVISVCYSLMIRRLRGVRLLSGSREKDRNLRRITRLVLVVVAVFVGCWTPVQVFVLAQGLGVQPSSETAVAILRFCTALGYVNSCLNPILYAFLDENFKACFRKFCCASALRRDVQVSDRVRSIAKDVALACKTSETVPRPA
# procedure-summary: Efficacy for human ORL1 receptor expressing HEK293 cells
# Format: functional, cell-based
Peptide text beside a SMILES is read from it.
Write it as a number; the unit nM goes unstated.

Below: 2 compounds and their reported EC50.
>>> test_result("C[C@H](NC(=O)[C@H](CS)NC(=O)[C@H](CCCCN)NC(=O)[C@H](CCCN=C(N)N)NC(=O)[C@H](C)NC(=O)[C@H](CS)NC(=O)[C@@H](NC(=O)[C@H](Cc1ccccc1)NC(=O)CNC(=O)CNC(=O)[C@@H](N)Cc1ccccc1)[C@@H](C)O)C(=O)N[C@@H](CCCN=C(N)N)C(=O)N[C@@H](CCCCN)C(N)=O (H-FGGFTCARKCARK-NH2)")
29.7
>>> test_result("C[C@H](NC(=O)CNC(=O)[C@@H](NC(=O)[C@H](Cc1ccccc1)NC(=O)CNC(=O)CNC(=O)[C@@H](N)Cc1ccccc1)[C@@H](C)O)C(=O)N[C@@H](CCCNC(=N)N)C(=O)N[C@@H](CCCCN)C(=O)N[C@@H](CS)C(=O)N[C@@H](C)C(=O)N[C@@H](CCCNC(=N)N)C(=O)N[C@@H](CCCCN)C(=O)N[C@@H](CS)C(N)=O (H-FGGFTGARKCARKC-NH2)")
3.9

Lookup: Using the record for C[C@H](NC(=O)[C@H](CO)NC(=O)[C@H](CCCCN)NC(=O)[C@H](CCCNC(=N)N)NC(=O)[C@H](CS)NC(=O)CNC(=O)[C@@H](NC(=O)[C@H](Cc1ccccc1)NC(=O)CNC(=O)CNC(=O)[C@@H](N)Cc1ccccc1)[C@@H](C)O)C(=O)N[C@@H](CCCNC(=N)N)C(=O)N[C@@H](CCCCN)C(=O)N[C@@H](CS)C(N)=O (H-FGGFTGCRKSARKC-NH2) , report its EC50.
Found: 22.3
